# Test system: E. cloacae GC 3783
# experiment_summary: Broth dilution MIC
# Type: cell-based
# assay_conditions: Enterobacter cloacae, GC3783; E. cloacae GC 3783; Mueller-Hinton broth, 18 hours at 35° C.; read-out: Antimicrobial Activity (MIC)
metric: MIC

// query I have this compound here, CCCCCCCCCCCCN1C(=O)C([C@@H](OC2O[C@H](CN)[C@H](O)[C@H]2OC)[C@H]2O[C@@H](n3ccc(=O)[nH]c3=O)[C@H](O)[C@@H]2O)N(CCCNC(=O)C(NC(=O)C(NC(=O)NC(C(=O)O)C(C)C)C2CCNC(=N)N2)C(O)C(C)C)C1=O (stereo partly drawn) , and I need its recorded MIC.
// result > 32 µg/mL

// query I have this compound here, CCCCCCN1C(=O)C([C@@H](OC2O[C@H](CN)[C@H](O)[C@H]2OC)[C@H]2O[C@@H](n3ccc(=O)[nH]c3=O)[C@H](O)[C@@H]2O)N(CCCNC(=O)C(NC(=O)C(NC(=O)NC(C(=O)O)C(C)C)C2CCNC(=N)N2)C(O)C(C)C)C1=O (stereo partly drawn) , and I need its recorded MIC.
// result > 32 µg/mL

// query I have this compound here, COC1C(O[C@H](C2C(=O)N(c3ccc(F)cc3)C(=O)N2CCCNC(=O)C(NC(=O)C(NC(=O)NC(C(=O)O)C(C)C)C2CCNC(=N)N2)C(O)C(C)C)[C@H]2O[C@@H](n3ccc(=O)[nH]c3=O)C(O)C2O)O[C@H](CNC(=O)Nc2ccc(F)cc2)C1O (stereo partly drawn) , and I need its recorded MIC.
// result > 32 µg/mL

----------
# Test system: S. aureus GC 4536
# experiment_summary: Broth dilution MIC
# Format: cell-based
# assay_conditions: Staphylococcus aureus, GC4536; S. aureus GC 4536; Mueller-Hinton broth, 18 hours at 35° C.; read-out: Antimicrobial Activity (MIC)
metric: MIC

// query Entry CO[C@H]1C(O[C@H](C(C(=O)O)N(CCCNC(=O)C(NC(=O)C(NC(=O)NC(C(=O)O)C(C)C)C2CCNC(=N)N2)C(O)C(C)C)Cc2ccccc2)[C@H]2O[C@@H](n3ccc(=O)[nH]c3=O)[C@H](O)[C@@H]2O)O[C@H](CN)[C@@H]1O (stereo partly shown) , system S. aureus GC 4536: what MIC was measured?
// result > 32 µg/mL

// query Entry CCCCCCN1C(=O)C([C@@H](OC2O[C@H](CN)[C@H](O)[C@H]2OC)[C@H]2O[C@@H](n3ccc(=O)[nH]c3=O)[C@H](O)[C@@H]2O)N(CCCNC(=O)C(NC(=O)C(NC(=O)NC(C(=O)O)C(C)C)C2CCNC(=N)N2)C(O)C(C)C)C1=O (stereo partly shown) , system S. aureus GC 4536: what MIC was measured?
// result > 32 µg/mL

// query Entry CCCCCNC[C@H]1OC(O[C@H](C(C(=O)O)N(CCCCC)CCCNC(=O)C(NC(=O)C(NC(=O)NC(C(=O)O)C(C)C)C2CCNC(=N)N2)C(O)C(C)C)[C@H]2O[C@@H](n3ccc(=O)[nH]c3=O)[C@H](O)[C@@H]2O)[C@H](OC)[C@H]1O (stereo partly shown) , system S. aureus GC 4536: what MIC was measured?
// result > 32 µg/mL

// query Entry CCCCCN(CCCNC(=O)C(NC(=O)C(NC(=O)NC(C(=O)O)C(C)C)C1CCNC(=N)N1)C(O)C(C)C)C(C(=O)O)[C@@H](OC1O[C@H](CN)[C@H](O)[C@H]1OC)[C@H]1O[C@@H](n2ccc(=O)[nH]c2=O)[C@H](O)[C@@H]1O (stereo partly shown) , system S. aureus GC 4536: what MIC was measured?
// result > 32 µg/mL

----------
# Tested on: S. aureus GC 4536
# experiment_summary: Broth dilution MIC
# Assay type: cell-based
# assay_conditions: Staphylococcus aureus, GC4536; S. aureus GC 4536; Mueller-Hinton broth, 18 hours at 35° C.; read-out: Antimicrobial Activity (MIC)
metric: MIC

// query I have this molecule here, CO[C@H]1C(O[C@H](C(C(=O)O)N(CCCCCCCCCCCC[N+]2(C)CCOCC2)CCCNC(=O)C(NC(=O)C(NC(=O)NC(C(=O)O)C(C)C)C2CCNC(=N)N2)C(O)C(C)C)[C@H]2O[C@@H](n3ccc(=O)[nH]c3=O)[C@H](O)[C@@H]2O)O[C@H](CN)[C@@H]1O (stereo partly shown) [Example 10] , and I need its recorded MIC.
// result > 32 µg/mL

// query I have this molecule here, COC1C(O[C@H](C2C(=O)N(c3ccc(F)cc3)C(=O)N2CCCNC(=O)C(NC(=O)C(NC(=O)NC(C(=O)O)C(C)C)C2CCNC(=N)N2)C(O)C(C)C)[C@H]2O[C@@H](n3ccc(=O)[nH]c3=O)C(O)C2O)O[C@H](CNC(=O)Nc2ccc(F)cc2)C1O (stereo partly shown) [Example 12] , and I need its recorded MIC.
// result > 32 µg/mL

// query I have this molecule here, COc1ccc(N2C(=O)C([C@@H](OC3O[C@H](CN)[C@H](O)[C@H]3OC)[C@H]3O[C@@H](n4ccc(=O)[nH]c4=O)[C@H](O)[C@@H]3O)N(CCCNC(=O)C(NC(=O)C(NC(=O)NC(C(=O)O)C(C)C)C3CCNC(=N)N3)C(O)C(C)C)C2=O)cc1 (stereo partly shown) [Example 4] , and I need its recorded MIC.
// result > 32 µg/mL

// query I have this molecule here, CCCCCCNC(=O)NC[C@H]1OC(O[C@H](C2C(=O)N(CCCCCC)C(=O)N2CCCNC(=O)C(NC(=O)C(NC(=O)NC(C(=O)O)C(C)C)C2CCNC(=N)N2)C(O)C(C)C)[C@H]2O[C@@H](n3ccc(=O)[nH]c3=O)[C@H](O)[C@@H]2O)[C@H](OC)[C@H]1O (stereo partly shown) [Example 14] , and I need its recorded MIC.
// result 32 µg/mL

----------
# Test system: CNS GC 4538
# experiment_summary: Broth dilution MIC
# Assay type: cell-based
# assay_conditions: CNS GC 4538; Mueller-Hinton broth, 18 hours at 35° C.; read-out: Antimicrobial Activity (MIC)
metric: MIC

// query Entry CCCCCCN1C(=O)C([C@@H](OC2O[C@H](CN)[C@H](O)[C@H]2OC)[C@H]2O[C@@H](n3ccc(=O)[nH]c3=O)[C@H](O)[C@@H]2O)N(CCCNC(=O)C(NC(=O)C(NC(=O)NC(C(=O)O)C(C)C)C2CCNC(=N)N2)C(O)C(C)C)C1=O (some centres unmarked) , system CNS GC 4538: what MIC was measured?
// result > 32 µg/mL

// query Entry CCCCCCCCCCCCN(CCCNC(=O)C(NC(=O)C(NC(=O)NC(C(=O)O)C(C)C)C1CCNC(=N)N1)C(O)C(C)C)C(C(=O)O)[C@@H](OC1O[C@H](CN)[C@H](O)[C@H]1OC)[C@H]1O[C@@H](n2ccc(=O)[nH]c2=O)[C@H](O)[C@@H]1O (some centres unmarked) , system CNS GC 4538: what MIC was measured?
// result > 32 µg/mL

Data origin: patent US6727232B2
